Data credit: paper PMC6445193

Target: human S-adenosyl-homocysteine hydrolase (rSAHH) (Homo sapiens, UniProt P23526)
Sequence (P23526 whole entry): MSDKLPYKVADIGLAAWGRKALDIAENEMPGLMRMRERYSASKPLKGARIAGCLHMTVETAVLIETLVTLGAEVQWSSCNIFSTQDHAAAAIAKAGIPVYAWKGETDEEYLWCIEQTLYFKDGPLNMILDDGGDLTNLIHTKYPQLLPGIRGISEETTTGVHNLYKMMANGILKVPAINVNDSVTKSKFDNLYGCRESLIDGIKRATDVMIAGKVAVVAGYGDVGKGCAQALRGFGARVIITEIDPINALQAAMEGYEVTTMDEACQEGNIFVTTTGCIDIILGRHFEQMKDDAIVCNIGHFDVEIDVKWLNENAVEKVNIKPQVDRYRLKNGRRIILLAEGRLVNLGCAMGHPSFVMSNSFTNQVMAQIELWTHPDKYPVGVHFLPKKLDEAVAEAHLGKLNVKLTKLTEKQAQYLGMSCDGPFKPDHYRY
Assay: SAHH inhibition, IC50 determination with recombinant SAHH (hydrolysis of SAH, Hcy determined with DTNB)
Type: biochemical
Conditions: recombinant human SAHH, Tris-HCl pH 6.5; read-out: SAHH IC50
Kindly state pIC50 for each of the entries shown.
pIC50 (log units): -log10 of the concentration in mol/L.

// pIC50 (human S-adenosyl-homocysteine hydrolase (rSAHH) (Homo sapiens, UniProt P23526)) for COc1ccc(C=O)cc1 [Compound 2] = 5.67

Bench note, human S-adenosyl-homocysteine hydrolase (rSAHH) (Homo sapiens, UniProt P23526): COc1ccc(N)cc1 [Compound 9] , pIC50 reads 6.05

The observed pIC50 for O=C(O)c1ccc(F)cc1 [Compound 8] when tested with human S-adenosyl-homocysteine hydrolase (rSAHH) (Homo sapiens, UniProt P23526) stands at 6.17

Response field pIC50 (human S-adenosyl-homocysteine hydrolase (rSAHH) (Homo sapiens, UniProt P23526)) for item CCOC(=O)c1ccc(N)cc1 [Compound 10] : 5.85

Let me check: COc1ccc(/C=C/C(=O)O)cc1 [Compound 11] , system human S-adenosyl-homocysteine hydrolase (rSAHH) (Homo sapiens, UniProt P23526), measured pIC50 is 6.01

O=C(O)/C=C/c1ccc(Cl)cc1 [Compound 12] tested on human S-adenosyl-homocysteine hydrolase (rSAHH) (Homo sapiens, UniProt P23526) gave pIC50: 6.24

I looked up COc1cc(C=O)ccc1O [Compound 5] and its pIC50 for human S-adenosyl-homocysteine hydrolase (rSAHH) (Homo sapiens, UniProt P23526) was 5.96

For the compound COc1cc(C=CCO)ccc1O [Compound 13] , the measured pIC50 on human S-adenosyl-homocysteine hydrolase (rSAHH) (Homo sapiens, UniProt P23526) was 7.47

The measured pIC50 that COC(=O)/C=C/c1ccc(CBr)cc1 [Compound 4] showed for human S-adenosyl-homocysteine hydrolase (rSAHH) (Homo sapiens, UniProt P23526) is 6.09
